tested on: LOX IMVI melanoma; assay: NCI-60 one-dose screen, 48 h; conditions: 10 µM unless noted
Compounds without any hit were thinned out: in the full panel of roughly 83,000, 20% have a hit. The source made the active and inactive calls. How the source made its calls: active means growth percent below 10; inactive means the rest.
Outcome codes: label 1 = active, label 0 = inactive

{"compound": "COC(=O)CCC/C=C\\C[C@H]1C=CC(=O)/C1=C/C[C@@H](O)CCc1cccc(C(F)(F)F)c1", "test_target": "LOX IMVI melanoma", "assigned_class": "label 1"}
{"compound": "COc1cccc(-c2nc(-c3ccc(NS(=O)(=O)c4ccccc4)cc3)[nH]c2-c2ccnc(Br)c2)c1", "test_target": "LOX IMVI melanoma", "assigned_class": "label 1"}
{"compound": "C/C(=C\\C(=O)c1ccc(Cl)cc1)c1ccc(Cl)cc1", "test_target": "LOX IMVI melanoma", "assigned_class": "label 0"}
{"compound": "Cc1ccc(S(=O)(=O)N/N=C/C2(c3ccccc3)CC2)cc1", "test_target": "LOX IMVI melanoma", "assigned_class": "label 0"}
{"compound": "COc1cccc(Cc2nn3cc(-c4ccccc4)nc3s2)c1", "test_target": "LOX IMVI melanoma", "assigned_class": "label 0"}
{"compound": "COc1cc(C(=O)c2cc(C)c3[nH]c4ccc(C)cc4c3c2C)cc(OC)c1OC", "test_target": "LOX IMVI melanoma", "assigned_class": "label 0"}
{"compound": "Cc1nn(-c2ccccc2)c2c1N=c1s/c(=C\\c3ccc(C(F)(F)F)cc3)c(=O)n1CN2", "test_target": "LOX IMVI melanoma", "assigned_class": "label 0"}
{"compound": "O=c1c2cc(F)ccc2sc2c(NCCN3CCOCC3)nc3ccccc3c12", "test_target": "LOX IMVI melanoma", "assigned_class": "label 0"}
{"compound": "NC(=O)Nc1ccc2ncnc(Nc3ccc(Cl)cc3)c2c1", "test_target": "LOX IMVI melanoma", "assigned_class": "label 0"}
{"compound": "CNC(C)[C@H]1CCC2C3CCC4C[C@@H](N(C)C(=O)c5ccccc5)CC[C@]4(C)C3CC[C@@]21C (stereo partly specified)", "test_target": "LOX IMVI melanoma", "assigned_class": "label 1"}
{"compound": "Cc1cc(Cl)ccc1NS(=O)(=O)c1ccc(-c2cnc(C3CC3)o2)cc1", "test_target": "LOX IMVI melanoma", "assigned_class": "label 0"}
{"compound": "CC1Cc2c(ncn3c(-c4ccc(F)cc4)nnc23)N(C)c2ccccc21 (stereo unspecified)", "test_target": "LOX IMVI melanoma", "assigned_class": "label 0"}
{"compound": "Cc1ccc(-c2cnc3sc(C(=O)NCCc4ccccc4)c(C)n23)cc1", "test_target": "LOX IMVI melanoma", "assigned_class": "label 0"}
{"compound": "COc1ccc(/C=C/c2c(C(=O)/C=C/c3ccc(Cl)cc3)c(C)nc3ccccc23)cc1", "test_target": "LOX IMVI melanoma", "assigned_class": "label 1"}
{"compound": "COc1ccc2nc(NCCCNCCO)c3sc4ccc(F)cc4c(=O)c3c2c1", "test_target": "LOX IMVI melanoma", "assigned_class": "label 1"}
{"compound": "O=C1CCC(C(=O)NCCNCCNC(=O)C2CCC(=O)N2)N1 (stereo unspecified)", "test_target": "LOX IMVI melanoma", "assigned_class": "label 0"}
{"compound": "COc1nc2ccc(C)cc2cc1-c1nc2c(cnn2-c2ccc(Br)cc2)c(=O)[nH]1", "test_target": "LOX IMVI melanoma", "assigned_class": "label 0"}
{"compound": "O=C1/C(=C/c2ccc(F)cc2)Sc2c(Br)cccc21", "test_target": "LOX IMVI melanoma", "assigned_class": "label 0"}
{"compound": "COc1cc2oc(-c3ccc(O)cc3)cc(=O)c2c(O)c1-c1c(OC)cc(O)c2c(=O)cc(-c3ccc(O)cc3)oc12", "test_target": "LOX IMVI melanoma", "assigned_class": "label 0"}
{"compound": "CCOc1cccc(NC2=C(Br)C(=O)C(C)=C(C)C2=O)c1", "test_target": "LOX IMVI melanoma", "assigned_class": "label 0"}
{"compound": "COc1ccc(/C=N/Nc2cc(=O)[nH]c3ccc(Cl)cc23)cc1", "test_target": "LOX IMVI melanoma", "assigned_class": "label 0"}
